Measured mass density, listed per entry.
conditions: 298.15 K; 101.33 kPa; Liquid
Numbers only; they are read as kg/m3.

Example results:
CCO; 785.15
CCCCCCO; 815.2
CC(=O)CC(C)C; 796.19
CO; 786.5
CCCCO; 805.75

Prompt line: Please list mass density recorded for the compound `CCCCCO`
Response line: 810.88

Prompt line: Please list mass density recorded for the compound `CCCO`
Response line: 799.51
